These measurements were taken from PubChem BioAssay (Tox21).

# Assay Notes: qHTS assay to identify small molecule antagonists of the TGF-beta/Smad signaling pathway - cell viability counter screen (AID 1346824); further: nearly all actives have a fitted effect of over 50% in size
# Measurement Context: SBE-bla HEK293T viability, CellTiter-Glo luminescence; series mostly up to 76.8 µM
Records with an inconclusive call do not appear. Activity calls are given as the source filed them. The call rests on the fitted dose curve; in most records, active means well fitted cell-killing curve with a large enough effect in the repeat runs; inconclusive means weak or mixed curves; inactive means flat fitted curve, though single readings scatter.
Possible outcomes: active, inactive

- Compound: "CCCCCON=O"
  Category: "inactive"
- Compound: "O=[N+]([O-])C(Br)Br"
  Category: "inactive"
- Compound: "Nc1ccc(N=Nc2ccccc2)cc1"
  Category: "inactive"
- Compound: "N#CSCc1ccccc1"
  Category: "inactive"
- Compound: "CC1CN1 (centres undefined)"
  Category: "inactive"
- Compound: "COC(=O)N(OC)c1ccccc1COc1ccn(-c2ccc(Cl)cc2)n1"
  Category: "inactive"
- Compound: "CCOC(=O)CCN(SN(C)C(=O)Oc1cccc2c1OC(C)(C)C2)C(C)C"
  Category: "inactive"
- Compound: "CC#C[C@]1(O)CC[C@H]2[C@@H]3C[C@H](C)C4=CC(=O)CC[C@]4(C)[C@H]3CC[C@@]21C"
  Category: "inactive"
- Compound: "Clc1ccc(C(c2ccc(Cl)cc2)C(Cl)Cl)cc1"
  Category: "inactive"
- Compound: "Clc1cc(Cl)c(-c2cc(Cl)c(Cl)cc2Cl)cc1Cl"
  Category: "inactive"
- Compound: "ClCBr"
  Category: "inactive"
- Compound: "CC(O)C(=O)[O][Hg][c]1ccccc1 (centres undefined)"
  Category: "active"
- Compound: "C1=CCC=C1"
  Category: "inactive"
- Compound: "COP(=O)(OC)O/C(=C\\Cl)c1cc(Cl)c(Cl)cc1Cl"
  Category: "inactive"
